The following are reported pKi results, target or system Bcl-xL protein (Homo sapiens (Human), UniProt Q07817).
Give bare numbers, as −log10 of the molar value.

Before answering, review these 3 worked examples.
CC1(C)CC(c2ccc(Cl)cc2)=C2CN3CCN(c4ccc(C(=O)NS(=O)(=O)c5ccc(OCC6(F)CCN(C7COC7)CC6)c([N+](=O)[O-])c5)c(N5CCCOc6nc7[nH]ccc7cc65)c4)C[C@H]3COCCCO[C@@H]2C1
8.65
CO[C@H]1CC[C@H](CNc2ccc(S(=O)(=O)NC(=O)c3ccc(N4CCN5CC6=C(c7ccc(Cl)cc7)CC(C)(C)C[C@H]6OCCCOC[C@@H]5C4)cc3N3CCCOc4nc5[nH]ccc5cc43)cc2Cl)OC1
6.35
CC1(C)CC(c2ccc(Cl)cc2)=C2CN3CCN(c4ccc(C(=O)NS(=O)(=O)c5ccc(NC[C@H]6C[C@](O)(CF)C6)c([N+](=O)[O-])c5)c(N5CCCOc6nc7[nH]ccc7cc65)c4)C[C@H]3COCCCO[C@@H]2C1
7.82

Shifting focus to the compound that follows.
Which pKi is reported for this compound? CC1(C)CC(c2ccc(Cl)cc2)=C2CN3CCN(c4ccc(C(=O)NS(=O)(=O)c5ccc(OCC6CCOCC6)c([N+](=O)[O-])c5)c(N5CCCOc6nc7[nH]ccc7cc65)c4)C[C@H]3COCCCO[C@@H]2C1
7.66

----------
Consider the following Ki values measured on UniProt:P10415.
Numbers only, in nM.

CC1(C)CC(c2ccc(Cl)cc2)=C2CN3CCN(c4ccc(C(=O)NS(=O)(=O)c5ccc(NC[C@H]6CC[C@](C)(O)CO6)c([N+](=O)[O-])c5)c(N5CCCOc6nc7[nH]ccc7cc65)c4)C[C@H]3COCCCO[C@@H]2C1
0.0489
COC1(CNc2ccc(S(=O)(=O)NC(=O)c3ccc(N4CCN5CC6=C(c7ccc(Cl)cc7)CC(C)(C)C[C@H]6OCCCOC[C@@H]5C4)cc3N3CCCOc4nc5[nH]ccc5cc43)cc2[N+](=O)[O-])CCOCC1
2.09
C[C@@H]1CO[C@@H](CNc2ccc(S(=O)(=O)NC(=O)c3ccc(N4CCN5CC6=C(c7ccc(Cl)cc7)CC(C)(C)C[C@H]6OCCCOC[C@@H]5C4)cc3N3CCCOc4nc5[nH]ccc5cc43)cc2[N+](=O)[O-])CO1
0.438
C[C@@H]1CO[C@@H](COc2ccc(S(=O)(=O)NC(=O)c3ccc(N4CCN5CC6=C(c7ccc(Cl)cc7)CC(C)(C)C[C@H]6OCCCOC[C@@H]5C4)cc3N3CCCOc4nc5[nH]ccc5cc43)cc2[N+](=O)[O-])CO1
0.977
CO[C@H]1CC[C@H](CNc2ccc(S(=O)(=O)NC(=O)c3ccc(N4CCN5CC6=C(c7ccc(Cl)cc7)CC(C)(C)C[C@H]6OCCCOC[C@@H]5C4)cc3N3CCCOc4nc5[nH]ccc5cc43)cc2[N+](=O)[O-])CC1
0.149

Please state Ki for every compound in the list that follows.
1. CC1(C)CC(c2ccc(Cl)cc2)=C2CN3CCN(c4ccc(C(=O)NS(=O)(=O)c5ccc(NCC6(F)CCN(C7COC7)CC6)c([N+](=O)[O-])c5)c(N5CCCOc6nc7[nH]ccc7cc65)c4)C[C@H]3COCCCO[C@@H]2C1
2. CO[C@@H]1CC[C@@H](CNc2ccc(S(=O)(=O)NC(=O)c3ccc(N4CCN5CC6=C(c7ccc(Cl)cc7)CC(C)(C)C[C@H]6OCCCOC[C@@H]5C4)cc3N3CCCOc4nc5[nH]ccc5cc43)cc2[N+](=O)[O-])OC1
3. CN1CCC(Nc2ccc(S(=O)(=O)NC(=O)c3ccc(N4CCN5CC6=C(c7ccc(Cl)cc7)CC(C)(C)C[C@H]6OCCCOC[C@@H]5C4)cc3N3CCCOc4nc5[nH]ccc5cc43)cc2[N+](=O)[O-])CC1
4. COC1CO[C@H](CNc2ccc(S(=O)(=O)NC(=O)c3ccc(N4CCN5CC6=C(c7ccc(Cl)cc7)CC(C)(C)C[C@H]6OCCCOC[C@@H]5C4)cc3N3CCCOc4nc5[nH]ccc5cc43)cc2[N+](=O)[O-])C1 (some centres unmarked)
5. CC1(C)CC(c2ccc(Cl)cc2)=C2CN3CCN(c4ccc(C(=O)NS(=O)(=O)c5ccc(NC[C@H]6CC[C@](O)(CF)CC6)c([N+](=O)[O-])c5)c(N5CCCOc6nc7[nH]ccc7cc65)c4)C[C@H]3COCCCO[C@@H]2C1
6. CC1(C)CC(c2ccc(Cl)cc2)=C2CN3CCN(c4ccc(C(=O)NS(=O)(=O)c5ccc(NCC6CCOCC6)c([N+](=O)[O-])c5)c(N5CCCOc6nc7[nH]ccc7cc65)c4)C[C@H]3COCCCO[C@@H]2C1
7. CC1(C)CC(c2ccc(Cl)cc2)=C2CN3CCN(c4ccc(C(=O)NS(=O)(=O)c5ccc(NCC6(O)CCOCC6)c([N+](=O)[O-])c5)c(N5CCCOc6nc7[nH]ccc7cc65)c4)C[C@H]3COCCCO[C@@H]2C1
8. CO[C@H]1C[C@H](Nc2ccc(S(=O)(=O)NC(=O)c3ccc(N4CCN5CC6=C(c7ccc(Cl)cc7)CC(C)(C)C[C@H]6OCCCOC[C@@H]5C4)cc3N3CCCOc4nc5[nH]ccc5cc43)cc2[N+](=O)[O-])C1

1. 0.194
2. 0.273
3. 0.51
4. 2.59
5. 0.24
6. 0.459
7. 0.223
8. 2.58

Record Ki for all entries; do not skip any.
1. CO[C@H]1C[C@@H](CNc2ccc(S(=O)(=O)NC(=O)c3ccc(N4CCN5CC6=C(c7ccc(Cl)cc7)CC(C)(C)C[C@H]6OCCCOC[C@@H]5C4)cc3N3CCCOc4nc5[nH]ccc5cc43)cc2[N+](=O)[O-])C1
2. CC1(C)CC(c2ccc(Cl)cc2)=C2CN3CCN(c4ccc(C(=O)NS(=O)(=O)c5ccc(OCC6(F)CCN(C7COC7)CC6)c(Cl)c5)c(N5CCCOc6nc7[nH]ccc7cc65)c4)C[C@H]3COCCCO[C@@H]2C1
3. COCCO[C@H]1CC[C@H](CNc2ccc(S(=O)(=O)NC(=O)c3ccc(N4CCN5CC6=C(c7ccc(Cl)cc7)CC(C)(C)C[C@H]6OCCCOC[C@@H]5C4)cc3N3CCCOc4nc5[nH]ccc5cc43)cc2[N+](=O)[O-])OC1

1: 0.248; 2: 0.267; 3: 0.0891

Returns the measured Ki for the input compound. Input: CC1(C)CC(c2ccc(Cl)cc2)=C2CN3CCN(c4ccc(C(=O)NS(=O)(=O)c5ccc(NC[C@H]6C[C@@](O)(CF)C6)c([N+](=O)[O-])c5)c(N5CCCOc6nc7[nH]ccc7cc65)c4)C[C@H]3COCCCO[C@@H]2C1
0.448

----------
Read-out record for Bcl-xL protein (Homo sapiens (Human), UniProt Q07817): pKi
Numbers only, as −log10 of the molar value.

C[C@@H]1CO[C@@H](COc2ccc(S(=O)(=O)NC(=O)c3ccc(N4CCN5CC6=C(c7ccc(Cl)cc7)CC(C)(C)C[C@H]6OCCCOC[C@@H]5C4)cc3N3CCCOc4nc5[nH]ccc5cc43)cc2[N+](=O)[O-])CO1
7.76

Please report the recorded pKi for CC1(C)CC(c2ccc(Cl)cc2)=C2CN3CCN(c4ccc(C(=O)NS(=O)(=O)c5ccc(NC[C@H]6CC[C@](O)(CF)CC6)c([N+](=O)[O-])c5)c(N5CCCOc6nc7[nH]ccc7cc65)c4)C[C@H]3COCCCO[C@@H]2C1 .
7.68

----------
The following are reported pKi results, target or system Bcl-2 protein (Homo sapiens (Human), UniProt P10415).
One number for each entry, as −log10 of the molar value.

CC1(C)CC(c2ccc(Cl)cc2)=C2CN3CCN(c4ccc(C(=O)NS(=O)(=O)c5ccc(OCC6(F)CCN(C7COC7)CC6)c([N+](=O)[O-])c5)c(N5CCCOc6nc7[nH]ccc7cc65)c4)C[C@H]3COCCCO[C@@H]2C1
9.32
CO[C@H]1CC[C@H](CNc2ccc(S(=O)(=O)NC(=O)c3ccc(N4CCN5CC6=C(c7ccc(Cl)cc7)CC(C)(C)C[C@H]6OCCCOC[C@@H]5C4)cc3N3CCCOc4nc5[nH]ccc5cc43)cc2[N+](=O)[O-])OC1
9.46
CC1(C)CC(c2ccc(Cl)cc2)=C2CN3CCN(c4ccc(C(=O)NS(=O)(=O)c5ccc(OCC6CCOCC6)c([N+](=O)[O-])c5)c(N5CCCOc6nc7[nH]ccc7cc65)c4)C[C@H]3COCCCO[C@@H]2C1
9.69
C[C@H]1CCC(CNc2ccc(S(=O)(=O)NC(=O)c3ccc(N4CCN5CC6=C(c7ccc(Cl)cc7)CC(C)(C)C[C@H]6OCCCOCC5C4)cc3N3CCCOc4nc5[nH]ccc5cc43)cc2[N+](=O)[O-])OC1 (stereo partly drawn)
9.20
COCCN1CCC(F)(COc2ncc(S(=O)(=O)NC(=O)c3ccc(N4CCN5CC6=C(c7ccc(Cl)cc7)CC(C)(C)C[C@H]6OCCCOC[C@@H]5C4)cc3N3CCCOc4nc5[nH]ccc5cc43)cc2Cl)CC1
9.47

List pKi for every entry below, keeping the order given.
1. CC1(C)CC(c2ccc(Cl)cc2)=C2CN3CCN(c4ccc(C(=O)NS(=O)(=O)c5ccc(NC[C@H]6CC[C@H](N7CCOCC7)CC6)c([N+](=O)[O-])c5)c(N5CCCOc6nc7[nH]ccc7cc65)c4)C[C@H]3COCCCO[C@@H]2C1
2. CC1(C)CC(c2ccc(Cl)cc2)=C2CN3CCN(c4ccc(C(=O)NS(=O)(=O)c5ccc(NC[C@H]6CC[C@H](O)CO6)c([N+](=O)[O-])c5)c(N5CCCOc6nc7[nH]ccc7cc65)c4)C[C@H]3COCCCO[C@@H]2C1
3. CC1(C)CC(c2ccc(Cl)cc2)=C2CN3CCN(c4ccc(C(=O)NS(=O)(=O)c5cnc(OC[C@]6(F)CC[C@H](N7CCOCC7)CC6)c(Cl)c5)c(N5CCCOc6nc7[nH]ccc7cc65)c4)C[C@H]3COCCCO[C@@H]2C1
4. CO[C@H]1CC[C@H](COc2ccc(S(=O)(=O)NC(=O)c3ccc(N4CCN5CC6=C(c7ccc(Cl)cc7)CC(C)(C)C[C@H]6OCCCOC[C@@H]5C4)cc3N3CCCOc4nc5[nH]ccc5cc43)cc2Cl)OC1

1. 9.08
2. 9.05
3. 9.03
4. 9.46

Values were extracted from patent US20250066388A1.
